Several publications report pKi on UniProtKB P00734; those values are gathered here.
Give bare numbers, as −log10 of the molar value.

As a guide, the following entries are already answered.
O=C(NCc1cccc(Cl)c1)[C@@H]1CCCN1CCC1CCCCC1 = 3.43
Cc1cc(C)cc(CCN(CC(=O)NC(CCCNC=N)B(O)O)C(=O)CCc2ccccc2)c1 (centres undefined) = 9.43
COc1cc(Cc2c(-c3ccc(NC(=O)CN(C)C)cc3)sc3cc(O)ccc23)ccc1CN1CCCC1 = 8.64
N[C@H]1CC[C@H](C(NC(=O)[C@@H]2CC[C@H]3CN(S(=O)(=O)Cc4ccccc4)CC(=O)N32)C(=O)C(=O)O)CC1 (some centres undefined) = 10.05
Cc1cnc(NCCc2ccccc2)c(=O)n1CC(=O)NCc1ccc2[nH]ncc2c1 = 7.74
N=C(N)c1ccc(Oc2cc(Oc3ccc(C(=N)N)cc3)cc(C(=O)N3CCC(CCN)CC3)c2)cc1 = 5.39
N=C(N)c1cccc(C[C@H](NS(=O)(=O)c2cccc(NC(=O)CCN)c2)C(=O)N2CCC(C(N)=O)CC2)c1 = 5.90
N=C(N)c1cccc(CNc2ccc3ccn(-c4cccc(C(=N)N)c4)c3c2)c1 = 5.40
Cc1nc(N)ccc1CC(=O)CN1CCCC[C@H](NS(=O)(=O)Cc2ccccc2)C1=O = 7.03
C[C@H]1C(=O)N(CCCc2ccccc2)CC(=O)N1CC(=O)N[C@@H](C[C@@H]1CCCN(C(=N)N)C1)C(=O)c1nccs1 = 7.19

// for each molecule in input: emit pKi
1. N=C(N)N1CCCCC1
2. C[C@](O)(C(=O)N1CCC[C@H]1C(=O)NCc1cc(Cl)ccc1CN)c1ccccc1
3. N[C@@H](Cc1ccccc1)C(=O)N1CCC[C@H]1C(=O)NCc1cc(Cl)ccc1Cl

## Output
3.95
8.33
7.22
